The reported numbers originate from paper PMC5355877.

biological target: recombinant human LTA4H (aminopeptidase, PGP substrate) (Homo sapiens, UniProt P09960); construct: purchased Cayman Chemicals; experiment: LTA4H aminopeptidase activity: PGP degradation by recombinant human LTA4H; format: biochemical; details: read-out: IC50 for inhibiting PGP degradation
Reported property: IC50

Molecule: Nc1nc(-c2ccc(Cc3ccccc3)cc2)cs1 [ARM1, 4-(4-benzylphenyl)-1,3-thiazole-2-amine, reference compound]
Target entity: recombinant human LTA4H (aminopeptidase, PGP substrate) (Homo sapiens, UniProt P09960)
Reported property: IC50
Meas value: ~9.1 µM

###

molecular target: LTA4H epoxide hydrolase activity (LTB4 generation) (Mus musculus, UniProt P24527); construct: endogenous in cells; host or cells: murine bone marrow neutrophils; test: LTA4H epoxide hydrolase activity: LTB4 generation by A23187-treated murine bone marrow neutrophils (EIA); format: cell-based; conditions: LTB4 generation, murine neutrophils; Table 2; read-out: Epoxide Hydrolase IC50 ± SEM
pIC50: −log10 of the molar value.
Classify as follows. Reported pIC50 greater than or equal to 5: condition met. Reported pIC50 below: condition not met.

Compound: CCOc1cc(O)cc(CCc2ccc(O)cc2)c1 [Compound 7]
Assigned class: condition met

Compound: COc1cc(O)cc(/C=C/c2ccc(O)cc2)c1 [Compound 5]
Assigned class: condition met

Compound: Oc1ccc(/C=C\c2cc(O)cc(O)c2)cc1 [Compound 2, cis-Resveratrol]
Assigned class: condition not met

Compound: COc1cc(O)cc(CCc2cccc(O)c2)c1 [Compound 8]
Assigned class: condition met

Compound: COc1cc(O)cc(CCc2ccc(O)cc2)c1 [Compound 6]
Assigned class: condition met

Compound: COc1cc(O)cc(CCc2ccccc2O)c1 [Compound 9]
Assigned class: condition met

###

Biological target: LTA4H epoxide hydrolase activity (LTB4 generation) (Mus musculus, UniProt P24527)
Construct: endogenous in cells; host or cells: murine bone marrow neutrophils
Sequence (P24527 1-611): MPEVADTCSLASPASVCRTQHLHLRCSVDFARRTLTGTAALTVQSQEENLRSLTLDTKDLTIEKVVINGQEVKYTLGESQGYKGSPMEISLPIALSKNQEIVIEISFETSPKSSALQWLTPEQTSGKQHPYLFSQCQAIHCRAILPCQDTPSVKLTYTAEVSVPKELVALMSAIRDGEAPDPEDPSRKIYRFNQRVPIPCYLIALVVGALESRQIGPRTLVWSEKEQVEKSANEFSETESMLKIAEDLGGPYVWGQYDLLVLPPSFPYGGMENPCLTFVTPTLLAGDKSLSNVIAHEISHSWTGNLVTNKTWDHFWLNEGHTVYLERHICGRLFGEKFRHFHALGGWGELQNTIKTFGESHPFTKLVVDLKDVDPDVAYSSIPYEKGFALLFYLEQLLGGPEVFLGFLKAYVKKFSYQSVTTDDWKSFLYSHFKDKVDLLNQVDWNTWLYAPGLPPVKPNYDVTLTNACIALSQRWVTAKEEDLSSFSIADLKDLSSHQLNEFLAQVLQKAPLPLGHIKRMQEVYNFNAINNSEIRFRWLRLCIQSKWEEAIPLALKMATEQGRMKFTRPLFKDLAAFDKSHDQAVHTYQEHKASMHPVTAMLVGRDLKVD
Assay: LTA4H epoxide hydrolase activity: LTB4 generation by A23187-treated murine bone marrow neutrophils (EIA)
Format: cell-based
Settings: LTB4 generation, murine neutrophils; Table 1; read-out: Epoxide Hydrolase IC50 ± SEM
pIC50: −log10 of the molar value.
Reported property: pIC50

Compound: Nc1nc(-c2ccc(Cc3ccccc3)cc2)cs1 [ARM1, 4-(4-benzylphenyl)-1,3-thiazole-2-amine, reference compound]
Reported property: pIC50
Meas value: 6.22
--
Compound: O=C(O)CCCN1CCC[C@H]1COc1ccc(Oc2ccc(Cl)cc2)cc1 [DG-051, reference compound]
Reported property: pIC50
Meas value: 6.17
--
Compound: CN(CCCOc1ccc(Cc2ccccc2)cc1)CCC(=O)O.Cl [SC57461A]
Reported property: pIC50
Meas value: 6.96
--
Compound: COc1ccc(Cc2ccccc2)cc1 [Compound 4-MDM, 4-Methoxydiphenylmethane, reference compound]
Reported property: pIC50
Meas value: 4.31

###

Measured pIC50 accompanies every entry in the list below.
molecular target: LTA4H epoxide hydrolase activity (LTB4 generation) (Mus musculus, UniProt P24527); construct: endogenous in cells; host or cells: murine bone marrow neutrophils; assay: LTA4H epoxide hydrolase activity: LTB4 generation by A23187-treated murine bone marrow neutrophils (EIA); type: cell-based; conditions: LTB4 generation, murine neutrophils; Table 3; read-out: Epoxide Hydrolase IC50 ± SEM
pIC50: −log10 of the molar value.

Compound: O=c1c(-c2ccc(O)cc2)coc2c3c(ccc12)OCO3
pIC50: 4.69
//
Compound: Cc1ccc2c(=O)c(-c3ccc(O)cc3)coc2c1O
pIC50: 5.92
//
Compound: O=C(Cc1ccc(O)cc1)c1ccc(O)cc1O
pIC50: 4.47
//
Compound: O=c1c(-c2ccc(O)cc2)coc2c(O)c(O)ccc12 [Compound 12, 7,8,4′-trihydroxyisoflavone]
pIC50: 5.14
//
Compound: O=c1c(-c2ccccc2)coc2cc(O)ccc12 [Compound 13, 7-hydroxy-3-phenyl-4H-chromen-4-one]
pIC50: 4.32
//
Compound: O=c1c(-c2ccc(O)cc2)coc2cc(O)ccc12
pIC50: 4.82

###

Items are presented alongside their recorded logD.
assay: logD pH7.4; format: physicochemical; settings: pH 7.4; read-out: logDpH7.4

Molecule: COc1cc(O)cc(CCc2ccccc2O)c1
logD: 2.25

Molecule: O=c1c(-c2ccc(O)cc2)coc2c(O)c(O)ccc12 [Compound 12, 7,8,4′-trihydroxyisoflavone]
logD: 1.24

###

# maps each entry to its IC50
Biological target: recombinant human LTA4H (aminopeptidase, PGP substrate) (Homo sapiens)
Construct: purchased Cayman Chemicals
Sequence (P09960 1-611): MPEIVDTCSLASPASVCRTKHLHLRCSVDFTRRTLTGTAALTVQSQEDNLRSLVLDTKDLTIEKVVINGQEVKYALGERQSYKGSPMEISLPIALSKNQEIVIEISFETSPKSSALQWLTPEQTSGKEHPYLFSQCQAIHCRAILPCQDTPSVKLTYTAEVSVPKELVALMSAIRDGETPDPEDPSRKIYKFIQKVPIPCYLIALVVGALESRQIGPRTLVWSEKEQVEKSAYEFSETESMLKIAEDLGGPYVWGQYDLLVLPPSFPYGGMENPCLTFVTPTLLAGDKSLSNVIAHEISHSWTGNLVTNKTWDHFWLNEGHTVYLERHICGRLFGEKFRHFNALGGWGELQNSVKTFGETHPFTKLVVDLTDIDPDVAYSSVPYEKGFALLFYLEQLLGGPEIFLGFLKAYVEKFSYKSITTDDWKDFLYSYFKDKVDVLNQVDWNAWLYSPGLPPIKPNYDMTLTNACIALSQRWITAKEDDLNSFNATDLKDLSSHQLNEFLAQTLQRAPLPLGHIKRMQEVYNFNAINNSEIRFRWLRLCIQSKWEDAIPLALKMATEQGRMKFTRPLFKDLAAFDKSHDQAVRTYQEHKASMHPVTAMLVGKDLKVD
Assay: LTA4H aminopeptidase activity: PGP degradation by recombinant human LTA4H
Format: biochemical
Conditions: PGP degradation; Table 3; read-out: Aminopeptidase IC50 ± SEM

Molecule: Cc1ccc2c(=O)c(-c3ccc(O)cc3)coc2c1O [Compound 15]
IC50: 69.2 µM
--
Molecule: O=c1c(-c2ccc(O)cc2)coc2c3c(ccc12)OCO3 [Compound 14]
IC50: 20.6 µM
--
Molecule: O=c1c(-c2ccc(O)cc2)coc2cc(O)ccc12 [Compound 11]
IC50: > 100 µM
--
Molecule: O=c1c(-c2ccc(O)cc2)coc2c(O)c(O)ccc12 [Compound 12, 7,8,4′-trihydroxyisoflavone]
IC50: 62.7 µM
--
Molecule: O=C(Cc1ccc(O)cc1)c1ccc(O)cc1O [Compound 10]
IC50: > 100 µM
--
Molecule: O=c1c(-c2ccccc2)coc2cc(O)ccc12 [Compound 13, 7-hydroxy-3-phenyl-4H-chromen-4-one]
IC50: > 100 µM

###

# reported half-life; entries follow
test: Human liver microsome stability; type: in vitro ADME; conditions: liver microsomes, read-out: Human liver microsomes t1/2

Compound: COc1cc(O)cc(CCc2ccccc2O)c1 [Compound 9]
Qualifier: =
half-life, min: 11.7
//
Compound: O=c1c(-c2ccc(O)cc2)coc2c(O)c(O)ccc12 [Compound 12, 7,8,4′-trihydroxyisoflavone]
Qualifier: >
half-life, min: 139

###

# maps each entry to its IC50
biological target: LTA4H epoxide hydrolase activity (LTB4 generation) (Mus musculus, UniProt P24527); construct: endogenous in cells; host or cells: murine bone marrow neutrophils; experiment: LTA4H epoxide hydrolase activity: LTB4 generation by A23187-treated murine bone marrow neutrophils (EIA); assay type: cell-based
Reported property: IC50 (µM)

Molecule: CC(=O)NC1CC2CCC(C1)N2Cc1ccc(Oc2nc3ncccc3s2)cc1 (centres unmarked) [JNJ-40929837]
Meas value: 0.009
//
Molecule: CC(=O)Oc1ccc(/C=C/c2cc(OC(C)=O)cc(OC(C)=O)c2)cc1 [Compound 4]
Meas value: 38.6
